Values compiled from patent US10278957B2.

# protocol: SGF assay (stability in simulated gastric fluid)
# Format: in vitro ADME
# experimental context: pig, simulated gastric fluid (SGF) with porcine pepsin, pH 2, pepsin, 37° C.
Square brackets hold non-standard residues; d marks the D form. Peptide text beside a SMILES is read from it. Dmt = Cc1cc(O)cc(C)c1C[C@H](N)C(=O)O; β3hF = N[C@H](CC(=O)O)Cc1ccccc1

compound	half-life at 20 μM
CCCC[C@@H](C(=O)O)N(C)C(=O)C[C@H](Cc1ccc(C)cc1)NC(=O)CNC(=O)[C@@H](C)NC(=O)[C@@H](N)Cc1c(C)cc(C(N)=O)cc1C [compound 165]	> 24 h
Cc1cc(O)cc(C)c1C[C@H](N)C(=O)N[C@H](Cc1ccc(O)cc1)C(=O)NCC(=O)N[C@H](CC(=O)N(C)CC(N)=O)Cc1ccccc1 [compound 84]	> 24 h
Cc1cc(C(N)=O)cc(C)c1C[C@H](N)C(=O)N[C@H](C)C(=O)NCC(=O)N[C@H](CC(=O)N(C)CC(N)=O)Cc1ccccc1 [compound 70]	0.167 to 6 h
Cc1cc(O)cc(C)c1C[C@H](N)C(=O)N[C@H](C)C(=O)NCC(=O)N[C@H](CC(=O)N(CCCOC(C)C)CC(N)=O)Cc1ccccc1 [compound 117]	> 24 h
Cc1cc(O)cc(C)c1C[C@H](N)C(=O)N[C@H](C)C(=O)NCC(=O)N[C@H](CC(=O)N(CCC(C)C)CC(N)=O)Cc1ccccc1 [compound 116]	> 24 h
CCCC[C@@H](C(=O)O)N(C)C(=O)C[C@H](Cc1ccccc1C)NC(=O)CNC(=O)[C@@H](C)NC(=O)[C@@H](N)Cc1c(C)cc(O)cc1C [compound 140]	6 to 24 h
Cc1cc(C(N)=O)cc(C)c1C[C@H](N)C(=O)N[C@H](C)C(=O)NCC(=O)N[C@H](CC(=O)N(C)[C@@H](C)C(=O)O)Cc1ccccc1 [compound 93]	> 24 h
CCCC[C@H](NC(=O)[C@H](Cc1ccccc1)NC(=O)CNC(=O)[C@@H](C)NC(=O)[C@@H](N)Cc1c(C)cc(O)cc1C)C(N)=O [compound 37]	0.167 to 6 h
Cc1cc(O)cc(C)c1C[C@H](N)C(=O)N[C@H](C)C(=O)NCC(=O)N[C@H](CC(=O)N(C)CC(=O)O)Cc1ccccc1 [compound 87]	6 to 24 h
Cc1cc(C(N)=O)cc(C)c1C[C@H](N)C(=O)N[C@@H](C(=O)NCC(=O)N[C@H](CC(=O)N(C)CC(N)=O)Cc1ccccc1)[C@H](C)O [compound 76]	0.167 to 6 h
Cc1cc(O)cc(C)c1C[C@H](N)C(=O)N[C@H](C)C(=O)NCC(=O)N[C@H](CC(=O)N(C)CC(N)=O)Cc1ccccc1 [compound 43]	> 24 h
Cc1cc(O)cc(C)c1C[C@H](N)C(=O)N[C@H](C)C(=O)NCC(=O)N[C@H](CC(=O)N(C)[C@@H](CC(C)C)C(=O)O)Cc1ccccc1 [compound 155]	> 24 h
Cc1cc(O)cc(C)c1C[C@H](N)C(=O)N[C@H](CC(=O)O)C(=O)NCC(=O)N[C@H](CC(=O)NCC(N)=O)Cc1ccccc1 [compound 179] (H-[Dmt][dD]G[β3hF]G-NH2)	> 24 h
Cc1cc(O)cc(C)c1C[C@H](N)C(=O)N[C@@H](C(=O)NCC(=O)N[C@H](CC(=O)N(C)CC(N)=O)Cc1ccccc1)[C@H](C)O [compound 82]	> 24 h
Cc1cc(C(N)=O)cc(C)c1C[C@H](N)C(=O)N[C@H](C)C(=O)NCC(=O)N[C@H](CC(=O)N(C)[C@H](C(=O)O)C(C)C)Cc1ccccc1 [compound 96]	> 24 h
Cc1cc(C(N)=O)cc(C)c1C[C@H](N)C(=O)N[C@H](C)C(=O)NCC(=O)N[C@H](CC(=O)N(C)CC(=O)O)Cc1ccccc1 [compound 79]	> 24 h
Cc1cc(O)cc(C)c1C[C@H](N)C(=O)N[C@H](C)C(=O)NCC(=O)N[C@H](CC(=O)N(CC(N)=O)Cc1ccccc1)Cc1ccccc1 [compound 118]	> 24 h
Cc1cc(O)cc(C)c1C[C@H](N)C(=O)N[C@H](CC(=O)O)C(=O)NCC(=O)N[C@H](CC(=O)N(C)CC(N)=O)Cc1ccccc1 [compound 83]	> 24 h
Cc1cc(O)cc(C)c1C[C@H](N)C(=O)N[C@H](C)C(=O)NCC(=O)N[C@H](CC(=O)N(C)[C@@H](C)C(=O)O)Cc1ccccc1 [compound 111]	> 24 h
Cc1cc(C(N)=O)cc(C)c1C[C@H](N)C(=O)N[C@H](C)C(=O)NCC(=O)N[C@H](CC(=O)N(C)[C@@H](Cc1ccc(O)cc1)C(=O)O)Cc1ccccc1 [compound 102]	> 24 h
Cc1cc(O)cc(C)c1C[C@H](N)C(=O)N[C@H](C)C(=O)NCC(=O)N[C@H](CC(=O)N(C)[C@H](C(=O)O)C(C)C)Cc1ccccc1 [compound 161]	> 24 h
Cc1cc(O)cc(C)c1C[C@H](N)C(=O)N[C@H](C)C(=O)NC(C)(C)C(=O)N[C@H](CC(=O)N(C)CC(N)=O)Cc1ccccc1 [compound 72]	0.167 to 6 h
CCCC[C@@H](C(=O)O)N(C)C(=O)C[C@H](Cc1ccc(F)cc1)NC(=O)CNC(=O)[C@@H](C)NC(=O)[C@@H](N)Cc1c(C)cc(C(N)=O)cc1C [compound 166]	> 24 h
